recorded-endpoint: melting point

1. O=C(O)c1cn(-c2nccs2)c2nc(Cl)cc(Cl)c2c1=O; 264 to 266 °C
2. Cc1cc2ccc(Cl)cc2[nH]1; 120 to 122 °C
3. c1ccc(OCCSCc2nnc(-c3ccc(OCCCCN4CCOCC4)cc3)o2)cc1; 64 to 67 °C
4. CC(C)OP(=O)(OCN1C(=O)c2c(C(C)C)cc(OCC(=O)O)cc2S1(=O)=O)OC(C)C; 118 to 125 °C
5. CC1=C([N+](=O)[O-])C(c2cccc(Cl)c2Cl)c2c[nH]nc2N1 (stereo not given); > 270 °C
6. NC1=NS(=O)N=C1NCCCN1c2ccccc2CCc2ccccc21 (stereo not given); 227 to 230 °C
7. CCOC(=O)c1cc2sc(C)c(N(C)S(=O)(=O)c3cccs3)c2[nH]1; 161 °C
8. CC(C)(C)c1cc(CCc2ccccc2NC(=O)N2CCN(C(=O)c3ccccc3)CC2)cc(C(C)(C)C)c1O; 207 to 209 °C
9. COc1ccc(OC)c(/C=C/C(=O)/C=C/C(=O)O)c1; 145 to 146 °C
10. CCNc1nc(NC2CC2)cc(SC)n1; 75 to 76 °C

###

recorded-endpoint: melting point (°C)

1) O=C(NCC(=O)N1[C@@H](c2ccccc2O)CC[C@H]1c1ccccc1)Nc1cccc(C(=O)O)c1 (racemic); 160
2) CCCc1cc2nc(=O)[nH]n2c(C)n1; 173
3) CCCCCCCC(=O)N(C)Cc1cccc(-c2ccc(CC3SC(=O)NC3=O)cc2C)c1 (stereo not given); 130
4) Nn1nc(-c2ccc(Cl)cc2)cc1OCCN1CCCCC1; 119

###

Property: melting point; scope: individual compounds
recorded-endpoint: melting point

1. CCCCOc1ccc2cc(Nc3ccc(O)cc3)ccc2c1; 138 to 139 °C
2. CN1CCN(Cc2nc3cccnc3n2CCO)CC1; 89.5 °C
3. CCCCc1nc2cccc(C(=O)OC)c2c(=O)n1Cc1ccc(-c2ccccc2-c2nnn[nH]2)cc1; 133 to 143 °C
4. O=[N+]([O-])c1ccc2c(c1)O[C@@H](CNCc1ccccc1)CO2; 98 °C
5. O=C(O)CCC(=O)c1ccc(NC(=O)C2(Cl)CC2)cc1; 178 to 179 °C
6. CCn1c(=N)c(F)cn(S(=O)(=O)c2ccccc2)c1=O; 163 to 166 °C
7. COCOc1ccc(C(=O)CI)c(OCc2ccccc2)c1; 66 to 68 °C
8. CC=C(C)C1CCC2C3CCC4=CC(=O)CCC4(C)C3CCC12C (stereo not given); 157 to 165 °C
9. COc1ccc(COc2cccnc2NC(=S)Nc2ccc(Cl)cc2)c(F)c1; 138 to 140 °C
10. Cc1cc(-c2ccc(C(F)(F)F)cc2)nc(-c2cccc(-c3cccc(S(=O)(=O)NC(C)(C)C)c3)n2)n1; > 250 °C
11. CCOC=CC(=O)Nc1cccc(C(=O)OC)c1; 108 to 110 °C
12. OCc1cc(CO)c(O)c(-c2ccccc2)c1; 105 to 110 °C
13. CCCCCCCNC(=O)Nc1cccc(N(C)C)c1C(=O)NC1CCN(C(c2ccccc2)c2ccccc2)CC1; 77 °C
14. CCc1c(C(=O)OC(C)C)ncc2[nH]c3ccc4nc(C)sc4c3c12; 239 to 240 °C
15. O=C(O)C(S)c1ccc(Cl)cc1 (stereo not given); 123 to 125 °C
16. O=C1CCc2cccc3c2N1C(=O)C3; 194 to 197 °C
17. COC(=O)c1cc(N(C)C(C)=O)cc(N(C)C(C)=O)c1; 106 °C
18. CC1(C)Oc2ccc(OCCCC(F)(F)F)cc2[C@H](NS(C)(=O)=O)[C@H]1O; 186 °C
19. COC(=O)c1cc(I)c(C(F)(F)F)cc1NC(C)=O; 96 to 98 °C
20. C1=CC(n2nc(-c3ccc4ccccc4c3)cc2-c2ccccc2)(n2nc(-c3ccc4ccccc4c3)cc2-c2ccccc2)CC=C1c1ccccc1; 287 °C
